# System: UACC-257
# protocolSummary: NCI tumour cell line growth inhibition, 48 h
The source made the active and inactive calls. No stated cut-off is given here; in the data, active = GI50 up to about 1.1 µM and inactive = higher.
Each entry below carries its recorded GI50.

These recorded examples may help you get a feel for the data.
O=C(CN1C(=O)c2ccccc2C1=O)OCC1CCCN2CCCCC12 (stereo unspecified) : > 100 µM (inactive)
O=C1NC(=O)c2c1n(Cc1ccccc1)c(=O)n2Cc1ccccc1 : > 100 µM (inactive)

Attention now shifts to the item below.
Give GI50 (UACC-257) of the following compound: `Nc1ccc(S(=O)(=O)c2ccc(NC(=O)c3cccnc3)cc2)cc1` 53 µM (inactive)

---

# Test system: UO-31
# protocolSummary: NCI tumour cell line growth inhibition, 48 h
Activity calls are given as the source filed them. No stated cut-off is given here; in the data, active = GI50 up to about 1.1 µM and inactive = higher.
Valid outcomes are listed here; reply with one: active, inactive

Record excerpt, results attached:
O=C(Nc1ccc(C(F)(F)F)cc1[N+](=O)[O-])C(=O)Nn1c(S)nc2ccccc2c1=O : inactive
COC(=O)Nc1nc(=O)c2ccccc2[nH]1 : inactive
Cc1cc(S(=O)(=O)N2CCNNC2=O)c(S)cc1Cl : inactive

Record lookup: outcome of this test for NNC(=O)N/N=C(/CC1(O)C(=O)Nc2ccc(Br)cc21)c1ccccc1 (stereo not given) ? inactive

Record lookup: outcome of this test for `CSC(=S)N/N=C(\C)c1cccc(C)n1` ? inactive

Record lookup: outcome of this test for `CCN(CC)CCSc1c2cc(OC)ccc2nc2ccc(OC)cc12` ? inactive

Record lookup: outcome of this test for C1CCC(CC2CCC(NC3=NCCO3)CC2)CC1 (stereo not given) ? inactive

Record lookup: outcome of this test for NC(=O)CC(N)C(=O)NC(Cc1ccccc1)C(=O)NC(Cc1ccccc1)NC(=O)C(Cc1c[nH]c2ccccc12)C(=O)O (stereo not given) ? inactive

---

Each entry below carries its recorded GI50.
# Tested on: NCI-H460
# protocolSummary: NCI tumour cell line growth inhibition, 48 h
Calls of active or inactive are those of the source. Cut-off read from the data, not from the text of the source: active = GI50 up to about 1.1 µM and inactive = higher.

These recorded examples may help you get a feel for the data.
Nc1c(-c2nc3ccccc3[nH]2)sc(=S)n1-c1ccccc1 : > 100 µM (inactive)
[O-][Cl+3]([O-])([O-])O.c1ccc(/N=c2\snc(-c3ccccc3)s2)cc1 : > 100 µM (inactive)
CCOC(=O)n1c2ccccc2c2c(O)c(OC)c3c(c21)C(=O)NC3=O : 13.9 µM (inactive)
COc1ccc(/C=N/NC(=O)c2ccccc2Nc2ccccc2C(=O)N/N=C/c2ccc(OC)cc2)cc1 : > 100 µM (inactive)

Attention now shifts to the item below.
Entry under review: `COC(=O)c1c(O)ccc2c1c1c(n2CCc2ccccc2)C(=O)c2ccccc2C1` . Reported GI50? 16.7 µM (inactive)

---

# Tested on: MDA-MB-435
# protocolSummary: NCI tumour cell line growth inhibition, 48 h
Active and inactive are the calls of the source. Rule as the data show it: active = GI50 up to about 1.1 µM and inactive = higher.
Each entry below carries its recorded GI50.

NCCCn1c2ccccc2c2c3c(c4c(c21)CCC(O)CC4)C(=O)NC3=O (centres undefined) : 1.53 µM (inactive)

Entry under review: `N#Cc1nc(-c2ccccc2C(=O)O)oc1N` . Reported GI50? > 100 µM (inactive)

---

# System: M14
# protocolSummary: NCI tumour cell line growth inhibition, 48 h
The source made the active and inactive calls. No stated cut-off is given here; in the data, active = GI50 up to about 1.1 µM and inactive = higher.
Each entry below carries its recorded GI50.

COc1cc([N+](=O)[O-])c(S(=O)(=O)O)cc1N : > 100 µM (inactive)

Entry under review: CC(NC1=CC(=O)c2cccnc2C1=O)C(O)c1ccccc1 (configuration not stated) . Reported GI50? 1.5 µM (inactive)

Entry under review: `O=C(Cc1nc(-c2ccccc2)cc(=O)n1-c1ccccc1Cl)c1ccncc1` . Reported GI50? > 100 µM (inactive)

Entry under review: `Cc1c(-c2cnccn2)ssc1=S` . Reported GI50? > 100 µM (inactive)

---

# Test system: LOX IMVI
# protocolSummary: NCI tumour cell line growth inhibition, 48 h
Active and inactive are the calls of the source. Rule as the data show it: active = GI50 up to about 1.1 µM and inactive = higher.
Valid outcomes are listed here; reply with one: y for active, n for inactive

Record excerpt, results attached:
Cc1ccc(S(=O)(=O)Nc2cccc(C)c2C)cc1 : n
CC[C@@]1(O)C[C@H](OC2CC(N(C)C)C(O)C(C)O2)c2c(O)c3c(c(O)c2[C@H]1OC1CC(N(C)C)C(O)C(C)O1)C(=O)c1cccc(O)c1C3=O (stereo not given in full) : y
O=S1(=O)c2ccccc2N2C(c3ccccc3)=NOC2(c2ccccc2)CC1c1ccc(Br)cc1 (stereo not given) : n
Cc1nc(N)c(N2CCN(C(=O)O)CC2)c(O)n1 : n
O=C(Nc1ccc([N+](=O)[O-])cc1[N+](=O)[O-])C(=O)C(C(=O)c1ccc(Cl)c(Cl)c1)C1OC(=O)c2ccccc21 (stereo not given) : n

Record lookup: outcome of this test for COc1ccc(NC(C)=O)cc1N1C(=O)/C(=C\c2cccc(Oc3ccccc3)c2)SC1c1ccccc1 (stereo not given) ? n

Record lookup: outcome of this test for `O=C(CCC1OCCO1)Nc1cc(NCc2ccccc2)ccc1OCc1ccccc1` ? n

Record lookup: outcome of this test for `O=C(Nc1ccc(C(F)(F)F)cc1[N+](=O)[O-])C(=O)Nn1c(S)nc2ccccc2c1=O` ? n

Record lookup: outcome of this test for `O=C(CN1CCCCC1)Nc1ccc2sc3ccccc3c(=O)c2n1` ? n

Record lookup: outcome of this test for `C1=Cc2cccc3occ(c23)C=C1` ? n

Record lookup: outcome of this test for `Cc1nc2ccccc2nc1CC(=O)C(=O)Nc1ccc(Cl)cc1Cl` ? n

---

# System: OVCAR-8
# protocolSummary: NCI tumour cell line growth inhibition, 48 h
Calls of active or inactive are those of the source. No stated cut-off is given here; in the data, active = GI50 up to about 1.1 µM and inactive = higher.
testReadout: GI50

C=C1C(OC(C)=O)CC(OC(C)=O)C2(C)C(OC(C)=O)C(OC(C)=O)C3=C(C)C(OC(=O)/C=C/c4ccccc4)CC(C(OC(C)=O)C12)C3(C)C (stereo unspecified) : 46.3 µM (inactive)

Entry under review: O=C(CN1C(=O)c2ccccc2C1=O)OCC1CCCN2CCCCC12 (stereo unspecified) . Reported GI50? > 100 µM (inactive)

Entry under review: `COc1cc2c(cc1OC)CC(=O)c1cc(OC)c(OC)cc1/C=C\2` . Reported GI50? > 12.5 µM (inactive)

Entry under review: Cc1cc2nc3c(=O)[nH]c(=O)nc-3n(CC(O)C(O)C(O)CO)c2cc1N (stereo unspecified) . Reported GI50? > 100 µM (inactive)

Entry under review: `O=[N+]([O-])/C=C/COCc1cc2c(cc1Br)OCO2` . Reported GI50? 31.9 µM (inactive)

Entry under review: `O=C(O)[C@H](NS(=O)(=O)c1ccc(F)cc1)c1ccccc1` . Reported GI50? > 100 µM (inactive)

Entry under review: `CC(=O)/C=C\C(=O)NNS(=O)(=O)c1ccc(C)cc1` . Reported GI50? > 100 µM (inactive)

Entry under review: `O=C(Nc1ccc(Cl)cc1Cl)c1c/c(=N\O)c2ccc(O)cc2o1` . Reported GI50? > 100 µM (inactive)

---

# System: A549
# protocolSummary: NCI tumour cell line growth inhibition, 48 h
The source made the active and inactive calls. Cut-off read from the data, not from the text of the source: active = GI50 up to about 1.1 µM and inactive = higher.
Valid outcomes are listed here; reply with one: active, inactive

CC1=CC(O)C(C(O)(C(F)(F)F)C(F)(F)F)C(C)(C)C1 (stereo not drawn) : inactive
COc1cc(OC)nc(-n2c(N)c(C#N)c3ccc([N+](=O)[O-])cc3c2=O)n1 : inactive
CN(C)CCCc1cccnc1 : inactive
Cc1cccc(-c2cc(=O)c3cc(C)c(C)c(C(=O)O)c3o2)c1 : inactive

Record lookup: outcome of this test for `Nn1nnc2ccccc21` ? inactive

Record lookup: outcome of this test for `O=[N+]([O-])/C=C/c1cc2ccc3ccccc3c2[nH]1` ? inactive

Record lookup: outcome of this test for COc1cc(C(=O)C2C(=O)c3ccccc3C2C2(O)c3ccccc3CC2C(O)c2cc(OC)c(OC)c(OC)c2)cc(OC)c1OC (stereo not drawn) ? inactive

Record lookup: outcome of this test for `Cc1cccc(/N=N/c2ccc(O)c(CN(C)C)c2)c1` ? inactive

Record lookup: outcome of this test for `CSc1[nH]nc(N)c1C(=O)Nc1ccccc1` ? inactive

Record lookup: outcome of this test for COC(=O)CCC1=NOC(CC2CC(CCC(=O)OC)=NO2)C1 (stereo not drawn) ? inactive

Record lookup: outcome of this test for `Cc1cc(C)c(C#N)c(SC(=S)NC(=O)c2ccc(Cl)cc2)n1` ? inactive

Record lookup: outcome of this test for `NS(=O)(=O)c1ccc(NC2(C(=O)O)CCCC2)cc1` ? inactive

Record lookup: outcome of this test for O=[N+]([O-])c1ccc(Cl)c(CNc2ncnc3c2ncn3C2CCCCO2)c1 (stereo not drawn) ? inactive

Record lookup: outcome of this test for `Cc1nc2c(=O)n(-c3ccccc3)c(=O)n(-c3ccccc3)c2o1` ? inactive

Record lookup: outcome of this test for `CC(C)=CC(=O)CC(=O)C(=O)Nc1ccc(C)c(C)c1` ? inactive

Record lookup: outcome of this test for COC(=O)C(C#N)C1NC(=O)c2ccccc21 (stereo not drawn) ? inactive
